Details: 25 °C
measurement_name: solubility (mM)

{"molecule": "CC(C)(C)c1ccccc1", "measured_number": 0.22}
{"molecule": "C=CCc1ccc(O)c(OC)c1", "measured_number": 27.4}
{"molecule": "CCC[C@@H](O)CC", "measured_number": 158}
{"molecule": "Clc1cccc(-c2cc(Cl)ccc2Cl)c1", "measured_number": 0.000982}
{"molecule": "c1ccc2[nH]ccc2c1", "measured_number": 30.4}
{"molecule": "CCCN(CCC)C(=O)SCC", "measured_number": 1.98}
{"molecule": "Clc1cc(Cl)c(Cl)c(-c2c(Cl)c(Cl)cc(Cl)c2Cl)c1Cl", "measured_number": "3.42e-07"}
{"molecule": "CCC(C)c1ccc(O)cc1 (stereo not drawn)", "measured_number": 6.39}

* * *

Details: 20 °C

{"compound": "CN(C)C(=O)Nc1ccc(Oc2ccc(Cl)cc2)cc1", "solubility / mM": 0.0127}
{"compound": "Oc1ccc2c(c1)CCCC2", "solubility / mM": 10.1}
{"compound": "COC(=O)C(Cl)Cc1ccc(Cl)cc1 (centres undefined)", "solubility / mM": 0.172}
{"compound": "CCCCOC(=O)CC", "solubility / mM": 11.5}
{"compound": "O=c1ccc2ccccc2o1", "solubility / mM": 13}
{"compound": "CNC(=O)Nc1nc2ccccc2s1", "solubility / mM": 0.0579}
{"compound": "CCOP(=S)(NC(C)C)Oc1ccccc1C(=O)OC(C)C (centres undefined)", "solubility / mM": 0.064}
{"compound": "Clc1ccc2c(c1)Oc1cc(Cl)c(Cl)c(Cl)c1O2", "solubility / mM": "1.34e-06"}
{"compound": "CC(C)OC(=O)C(C)N(C(=O)c1ccccc1)c1ccc(F)c(Cl)c1 (centres undefined)", "solubility / mM": 0.0373}
{"compound": "OCCCBr", "solubility / mM": 1020}
{"compound": "CSc1nc(N=[N+]=[N-])nc(NC(C)C)n1", "solubility / mM": 0.244}
{"compound": "CC(=NO)C(C)=NO", "solubility / mM": 5.17}
{"compound": "Clc1cc2c(cc1Cl)Oc1c(Cl)c(Cl)c(Cl)c(Cl)c1O2", "solubility / mM": "1.13e-08"}
{"compound": "CC(CCl)OC(C)CCl (centres undefined)", "solubility / mM": 9.94}
{"compound": "CC1CNCCN1 (centres undefined)", "solubility / mM": 4340}
{"compound": "Nc1ccc(S(=O)(=O)O)cc1", "solubility / mM": 62.4}
{"compound": "Clc1ccc(-c2c(Cl)cc(Cl)c(Cl)c2Cl)c(Cl)c1", "solubility / mM": "3.37e-05"}
{"compound": "CCSCc1ccccc1OC(=O)NC", "solubility / mM": 8.08}
{"compound": "CC(C)C1=CC2=CC[C@@H]3[C@](C)(CCC[C@@]3(C)C(=O)O)[C@H]2CC1", "solubility / mM": 0.16}
{"compound": "FC(F)(F)c1cccc(C(c2ccccc2)(c2ccccc2)n2cncn2)c1", "solubility / mM": "3.95e-06"}
{"compound": "Oc1nc(O)c2nccnc2n1", "solubility / mM": 7.62}
{"compound": "CNCC(=O)O", "solubility / mM": 3370}
{"compound": "CCc1ccccc1CC", "solubility / mM": 0.53}
{"compound": "Clc1ccc(-c2ccccc2Cl)cc1Cl", "solubility / mM": 0.000516}

* * *

Details: 25 °C
Label true when solubility >= 200 µM; otherwise false.

{"smiles_string": "O=[N+]([O-])c1cc(C2CCCCC2)c(O)c([N+](=O)[O-])c1", "assigned_category": "false"}
{"smiles_string": "NC(=O)CC[C@H](N)C(=O)O", "assigned_category": "true"}
{"smiles_string": "CC#CCCCC", "assigned_category": "true"}
{"smiles_string": "S=C=Nc1cccc(Br)c1", "assigned_category": "false"}
{"smiles_string": "C#CCCCCCC#C", "assigned_category": "true"}
{"smiles_string": "CCC(O)CC", "assigned_category": "true"}
{"smiles_string": "COc1ccc2c(c1)N(C[C@H](C)CN(C)C)c1ccccc1S2", "assigned_category": "false"}

* * *

Settings: 20 °C

{"molecule": "NCCS(=O)(=O)O", "solubility, mM": 645}
{"molecule": "O=c1cc(O)cc[nH]1", "solubility, mM": 56.3}
{"molecule": "Clc1ccc(-c2c(Cl)cc(Cl)c(Cl)c2Cl)cc1Cl", "solubility, mM": "2.24e-05"}
{"molecule": "C=CC1CN2CCC1CC2C(=O)c1ccnc2ccc(OC)cc12 (centres undefined)", "solubility, mM": 0.0093}

* * *

Conditions: 25 °C

{"smiles_string": "O=C(O)c1cc(O)c(O)c(OC(=O)c2cc(O)c(O)c(O)c2)c1", "solubility": "1550 µM"}
{"smiles_string": "CCc1cccs1", "solubility": "2600 µM"}
{"smiles_string": "O=C1CCCCC1", "solubility": "255000 µM"}
{"smiles_string": "O=C(O)c1cccnc1Nc1cccc(C(F)(F)F)c1", "solubility": "67.3 µM"}
{"smiles_string": "c1ccc(CCc2ccccc2)cc1", "solubility": "23.6 µM"}
{"smiles_string": "C[C@]12CC[C@H](O)CC1=CC[C@@H]1[C@@H]2CC[C@]2(C)C(=O)CC[C@@H]12", "solubility": "129 µM"}

* * *

Conditions: 25 °C
Classification scheme (solubility): low group: < 1 mM; middle group: ≥ 1 mM and < 9 mM; high group: ≥ 9 mM

{"smiles_string": "O=C(O)CCI", "assigned_category": "high group"}
{"smiles_string": "C1=CCCC1", "assigned_category": "middle group"}
{"smiles_string": "NCCCCCC(=O)O", "assigned_category": "high group"}
{"smiles_string": "COc1ccc2c(c1)c(CC(=O)O)c(C)n2C(=O)c1ccc(Cl)cc1", "assigned_category": "low group"}
{"smiles_string": "Clc1ccccc1-c1c(Cl)cc(Cl)c(Cl)c1Cl", "assigned_category": "low group"}
{"smiles_string": "CCC#CC(C)C", "assigned_category": "middle group"}
{"smiles_string": "O=C(O)c1ccccc1", "assigned_category": "high group"}
{"smiles_string": "c1ccc(-c2ccccc2-c2ccccc2)cc1", "assigned_category": "low group"}
{"smiles_string": "ClCCCBr", "assigned_category": "high group"}
{"smiles_string": "Cc1c[nH]c(=S)[nH]c1=O", "assigned_category": "middle group"}
{"smiles_string": "O=C(O)COc1cccc(Cl)c1Cl", "assigned_category": "middle group"}
{"smiles_string": "CCCCCCCCCCCCCC(=O)O", "assigned_category": "low group"}
{"smiles_string": "Clc1ccc(-c2cc(Cl)ccc2Cl)cc1", "assigned_category": "low group"}
{"smiles_string": "Cc1ccccc1C(=O)O", "assigned_category": "middle group"}
{"smiles_string": "CCCCCCC(=O)O", "assigned_category": "high group"}

* * *

Known solubility of a selection of molecules
Conditions: 20 °C
measurement_name: solubility (mM)

{"molecule": "COC(=O)c1cccnc1", "units_label": "mM", "measured_number": 347}
{"molecule": "C[C@@H]1CN[C@@H](C)CN1", "units_label": "mM", "measured_number": 3060}
{"molecule": "Cc1occc1C(=O)Nc1ccccc1", "units_label": "mM", "measured_number": 0.497}
{"molecule": "Clc1cc(Cl)c(-c2c(Cl)c(Cl)cc(Cl)c2Cl)cc1Cl", "units_label": "mM", "measured_number": "1.14e-05"}
{"molecule": "OCCN(CCO)c1ccccc1", "units_label": "mM", "measured_number": 184}
{"molecule": "O=[N+]([O-])c1ccc(Cl)c(Cl)c1Cl", "units_label": "mM", "measured_number": 0.115}
{"molecule": "CCc1ccc(CC)cc1", "units_label": "mM", "measured_number": 0.185}
{"molecule": "CCCC1(CCC)C(=O)NC(=O)NC1=O", "units_label": "mM", "measured_number": 2.83}
{"molecule": "c1cnc2ncncc2n1", "units_label": "mM", "measured_number": 1080}
{"molecule": "N#CCC(N)=O", "units_label": "mM", "measured_number": 1550}
{"molecule": "Clc1ccc(-c2cc(Cl)c(Cl)c(Cl)c2Cl)cc1Cl", "units_label": "mM", "measured_number": "1.48e-05"}
{"molecule": "CCOP(=S)(OCC)Oc1ccc(S(C)=O)cc1 (stereo not drawn)", "units_label": "mM", "measured_number": 6.49}
{"molecule": "Clc1ccc(-c2cc(Cl)c(Cl)cc2Cl)cc1Cl", "units_label": "mM", "measured_number": "4.1e-05"}
{"molecule": "Oc1cccc2cccnc12", "units_label": "mM", "measured_number": 3.83}
{"molecule": "O=c1ccc2ccccc2[nH]1", "units_label": "mM", "measured_number": 7.25}
{"molecule": "COP(=S)(OC)SCc1nc(N)nc(N)n1", "units_label": "mM", "measured_number": 0.853}
{"molecule": "CON(C)C(=O)Nc1ccc(Br)c(Cl)c1", "units_label": "mM", "measured_number": 0.119}
{"molecule": "COC(=O)c1ccc(OC)cc1", "units_label": "mM", "measured_number": 3.87}
{"molecule": "N[C@H](CCCC(=O)O)C(=O)O", "units_label": "mM", "measured_number": 13.7}
{"molecule": "CN(C)C(=O)NC1CCCCCCC1", "units_label": "mM", "measured_number": 6.05}
{"molecule": "C[C@H](O)C(=O)Nc1c(I)c(C(=O)NC(CO)CO)c(I)c(C(=O)NC(CO)CO)c1I", "units_label": "mM", "measured_number": 180}
{"molecule": "C[C@H](CCC(=O)O)[C@H]1CC[C@H]2[C@@H]3[C@@H](O)C[C@@H]4C[C@H](O)CC[C@]4(C)[C@H]3CC[C@]12C", "units_label": "mM", "measured_number": 0.108}
{"molecule": "O=C1C=C2CC3(O)COc4c(ccc(O)c4O)C3=C2C=C1O (stereo not drawn)", "units_label": "mM", "measured_number": 2}
{"molecule": "c1ccc2c(c1)ccc1c2ccc2c3ccccc3ccc21", "units_label": "mM", "measured_number": "1.55e-05"}
{"molecule": "CCCCOCCOC(C)=O", "units_label": "mM", "measured_number": 56.2}
{"molecule": "O=C(O)C1(O)c2ccccc2-c2ccc(Cl)cc21 (stereo not drawn)", "units_label": "mM", "measured_number": 0.076}
{"molecule": "Nc1cnn(-c2ccccc2)c(=O)c1Cl", "units_label": "mM", "measured_number": 1.8}
{"molecule": "CC1CCCC(=O)C1 (stereo not drawn)", "units_label": "mM", "measured_number": 13.4}

Where do the numbers come from? From the OPERA property sets (Mansouri et al. 2018).
